Form field: Ki (one value per entry).
# Study Target: Human Activated Protein C (h aPC) (Homo sapiens)
# Sequence (P04070 212-450 limits assumed): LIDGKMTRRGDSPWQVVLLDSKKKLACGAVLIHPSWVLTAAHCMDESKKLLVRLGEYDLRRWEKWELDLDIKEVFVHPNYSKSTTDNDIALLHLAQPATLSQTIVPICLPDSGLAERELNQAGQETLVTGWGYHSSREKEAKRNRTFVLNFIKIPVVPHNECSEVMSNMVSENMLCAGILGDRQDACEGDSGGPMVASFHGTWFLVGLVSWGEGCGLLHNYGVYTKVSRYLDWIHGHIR
# Sequence (P04070 43-197 partner limits assumed): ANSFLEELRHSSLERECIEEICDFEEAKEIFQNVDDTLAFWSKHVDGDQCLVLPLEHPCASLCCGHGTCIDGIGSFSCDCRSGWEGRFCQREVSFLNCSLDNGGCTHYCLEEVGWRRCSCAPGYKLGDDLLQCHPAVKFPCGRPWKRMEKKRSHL
# Test Name: Inhibition of human activated protein C (reference enzyme)
# Condition Info: Pefachrome PCa substrate
# Method: The inhibitory effect against the individual purified enzymes was determined in analogy to a previously disclosed method (Stürzebecher et al., J. Med. Chem., 40, 3091-3099 (1997)). The release of p-nitroaniline (p-NA, the chromogenic product of the proteolytic activity), was determined by change in absorbance at 405 nm. […] Dissociation constants were calculated as described herein.

# example entries with known answers
>>> print(df.to_string())
                                   compound  parameter  observed
0  NCc1ccc(Cl)cc1CNC(=O)[C@@H]1CCCN1C(=O)[C@@H](CC(=O)Nc1ccncc1)NS(=O)(=O)Cc1ccccc1 [Compound 2.34]         Ki  > 100 µM
1  NCc1ccc(Cl)cc1CNC(=O)[C@@H]1CCCN1C(=O)[C@@H](CCC(=O)O)NS(=O)(=O)Cc1ccccc1 [Compound 2.29]         Ki   > 25 µM
2  NCc1ccc(Cl)cc1CNC(=O)[C@@H]1CCCN1C(=O)[C@@H](CC(=O)N1CC[C@@H](N)C1)NS(=O)(=O)Cc1ccccc1 [Compound 2.11]         Ki   > 50 µM
3  NCc1ccc(Cl)cc1CNC(=O)[C@@H]1CCCCN1C(=O)[C@@H](CCC(=O)N1CCOCC1)NS(=O)(=O)Cc1ccccc1 [Compound 2.15]         Ki   > 10 µM
4  CC(=O)N1CCC(N(C)C(=O)CC[C@@H](NS(=O)(=O)Cc2ccccc2)C(=O)N2CCC[C@H]2C(=O)NCc2cc(Cl)ccc2CN)CC1 [Compound 2.28]         Ki   > 50 µM

Next:
May I ask what Ki has been recorded for O=C(NCc1cc(Cl)ccc1-n1cnnn1)[C@@H]1C[C@H](O)CN1C(=O)[C@@H](CCC(=O)N1CCOCC1)NS(=O)(=O)Cc1ccccc1 [Compound 2.21] ? > 50 µM

----------
# Study Target: UniProt P00736
# Sequence (P00736 464-705 limits assumed): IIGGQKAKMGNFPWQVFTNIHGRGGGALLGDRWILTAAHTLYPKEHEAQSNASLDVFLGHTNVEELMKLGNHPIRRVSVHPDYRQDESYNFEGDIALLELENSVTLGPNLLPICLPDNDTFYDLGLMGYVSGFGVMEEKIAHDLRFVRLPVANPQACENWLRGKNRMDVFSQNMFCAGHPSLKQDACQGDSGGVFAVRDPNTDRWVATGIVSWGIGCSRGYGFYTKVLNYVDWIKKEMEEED
# Sequence (P00736 18-463 partner limits assumed): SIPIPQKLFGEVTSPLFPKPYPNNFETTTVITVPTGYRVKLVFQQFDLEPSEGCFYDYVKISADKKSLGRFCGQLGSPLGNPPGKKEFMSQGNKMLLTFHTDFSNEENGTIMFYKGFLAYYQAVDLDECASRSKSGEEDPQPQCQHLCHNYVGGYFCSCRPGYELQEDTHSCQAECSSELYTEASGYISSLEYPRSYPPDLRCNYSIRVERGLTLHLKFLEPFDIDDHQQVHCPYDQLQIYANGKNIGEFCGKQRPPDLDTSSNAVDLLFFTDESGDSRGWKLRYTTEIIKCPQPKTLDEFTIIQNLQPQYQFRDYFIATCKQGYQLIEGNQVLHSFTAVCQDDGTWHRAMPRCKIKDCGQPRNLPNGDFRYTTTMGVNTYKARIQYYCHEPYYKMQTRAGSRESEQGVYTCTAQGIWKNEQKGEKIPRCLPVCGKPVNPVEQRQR
Structures can show the parent of a compound that is named as a salt.
Parameter: Ki

# example entries with known answers
In [3]: df
Out[3]:
                                   compound  observed
0  NCc1ccc(Cl)cc1CNC(=O)[C@@H]1CCN1C(=O)[C@@H](CC(=O)N1CCCCC1)NS(=O)(=O)Cc1ccccc1   > 30 µM
1  CC(=O)N1CCC(CN(C)C(=O)C[C@@H](NS(=O)(=O)Cc2ccccc2)C(=O)N2CCC[C@H]2C(=O)NCc2cc(Cl)ccc2CN)CC1   > 10 µM
2  N[C@H]1C[C@@H](C(=O)NCc2cc(Cl)ccc2-n2cnnn2)N(C(=O)[C@@H](CCC(=O)N2CCOCC2)NS(=O)(=O)Cc2ccccc2)C1   > 40 µM

Could you share what Ki was measured for NCc1ccc(Cl)cc1CNC(=O)[C@@H]1CCN1C(=O)[C@@H](CC(=O)N1CCNCC1)NS(=O)(=O)Cc1ccccc1 [Compound 2.50, TFA] , tested on UniProt P00736? > 100 µM

Could you share what Ki was measured for "CN(C(=O)CC[C@@H](NS(=O)(=O)Cc1ccccc1)C(=O)N1CCC[C@H]1C(=O)NCc1cc(Cl)ccc1CN)C1CCOCC1" , tested on UniProt P00736? > 100 µM

Could you share what Ki was measured for "NCc1ccc(Cl)cc1CNC(=O)[C@@H]1C[C@H](N)CN1C(=O)[C@@H](CC(=O)N1CCNCC1)NS(=O)(=O)Cc1ccccc1" , tested on UniProt P00736? > 100 µM
